target: T1, biotin-labeled human CD137 fused to human IgG1 Fc fragment (human, biotin-labeled); test: bead ELISA, IgG on biotin-human CD137-Fc; control competitor: free human IgG1 Fc 62.5 pmol
T1 construct: also called human CD137-Fc; biotin-human CD137-Fc

binder	ELISA signal, Free Fc 62.5 pmol
dBBDu186/L108 (antibody, V domains shown, Purified IgG; Fab genes of the panning output converted into IgG format) VH: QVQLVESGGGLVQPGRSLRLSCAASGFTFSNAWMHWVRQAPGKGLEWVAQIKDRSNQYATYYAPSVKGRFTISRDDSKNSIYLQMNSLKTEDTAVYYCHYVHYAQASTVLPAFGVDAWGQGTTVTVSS VL: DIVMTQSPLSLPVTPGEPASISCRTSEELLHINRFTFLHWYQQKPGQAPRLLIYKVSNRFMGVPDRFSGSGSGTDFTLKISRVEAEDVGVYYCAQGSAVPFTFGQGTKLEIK	83600
dBBDu186/L100 (antibody, V domains shown, Purified IgG; Fab genes of the panning output converted into IgG format) VH: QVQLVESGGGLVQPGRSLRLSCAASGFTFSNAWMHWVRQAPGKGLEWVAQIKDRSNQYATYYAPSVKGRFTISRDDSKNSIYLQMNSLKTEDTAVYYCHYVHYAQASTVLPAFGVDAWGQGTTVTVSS VL: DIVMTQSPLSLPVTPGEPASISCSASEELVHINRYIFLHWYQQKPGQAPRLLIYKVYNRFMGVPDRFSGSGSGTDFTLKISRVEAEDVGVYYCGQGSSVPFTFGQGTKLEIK	102000
dBBDu186/L106 (antibody, V domains shown, Purified IgG; Fab genes of the panning output converted into IgG format) VH: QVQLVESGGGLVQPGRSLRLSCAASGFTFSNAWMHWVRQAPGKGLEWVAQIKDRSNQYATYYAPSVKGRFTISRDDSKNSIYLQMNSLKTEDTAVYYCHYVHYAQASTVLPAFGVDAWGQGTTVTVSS VL: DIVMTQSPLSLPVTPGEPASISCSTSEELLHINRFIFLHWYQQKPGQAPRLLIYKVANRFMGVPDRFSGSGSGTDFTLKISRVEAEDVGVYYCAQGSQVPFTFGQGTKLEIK	9860
